These data points were gathered from patent US9090605B2.

# Study System: 11β-HSD1 (Homo sapiens)
# Sequence (P28845 whole entry): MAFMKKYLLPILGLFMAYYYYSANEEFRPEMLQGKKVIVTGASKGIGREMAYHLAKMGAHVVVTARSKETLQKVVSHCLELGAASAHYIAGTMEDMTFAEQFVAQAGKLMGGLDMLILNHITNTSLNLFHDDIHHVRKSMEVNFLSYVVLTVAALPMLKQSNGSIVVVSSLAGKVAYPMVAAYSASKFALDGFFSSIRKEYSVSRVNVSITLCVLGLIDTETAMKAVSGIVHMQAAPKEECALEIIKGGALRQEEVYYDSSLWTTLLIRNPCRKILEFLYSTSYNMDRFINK
# Test Details: In vitro inhibition of 11β-HSD1, HTRF detection of cortisol generated by human liver microsomes (biological test example 1)
# Type: biochemical
# Parameters: detecting cortisol generated from cortisterone by human liver microsomes; from tissue; host or cells: human liver microsomes
# Run Parameters: 1 hour at 37° C., cortisone 80 nM, NADPH 200 μM, read-out: IC50, inhibitory activity on 11β-HSD 1
Property Measured: pIC50
// pIC50: -log10(molar conc.)

Worked examples, 2 molecules total:
[ask] Endpoint output: pIC50 of CNC(=O)C1(c2cc(-c3ccc([C@H](C)N4CC[C@](CC(C)(C)O)(c5ccccc5)OC4=O)cc3)ccn2)CC1 . Value?
[reply] 7.19

[ask] Endpoint output: pIC50 of C[C@@H](c1ccc(-c2ccc(C3(S(C)(=O)=O)CC3)nc2)cc1)N1CC[C@](CC(C)(C)O)(c2ccccc2)OC1=O . Value?
[reply] 7.19

Continuing:
[ask] Endpoint output: pIC50 of C[C@@H](c1ccc(-c2ccc(C3(C(N)=O)CC3)nc2)cc1)N1CC[C@](CC(C)(C)O)(c2ccccc2)OC1=O . Value?
[reply] 7.41

[ask] Endpoint output: pIC50 of CNC(=O)C1(c2ccc(-c3ccc([C@H](C)N4CC[C@](CC(C)(C)O)(c5ccccc5)OC4=O)cc3)nn2)CC1 . Value?
[reply] 7.21

[ask] Endpoint output: pIC50 of C[C@@H](c1ccc(-c2ccc(C3(C(=O)N(C)C)CC3)nc2)cc1)N1CC[C@](CC(C)(C)O)(c2ccccc2)OC1=O . Value?
[reply] 7.68

---

# Study System: 11β-HSD1 (Homo sapiens)
# Test Details: In vitro inhibition of 11β-HSD1, HTRF detection of cortisol generated by human liver microsomes (biological test example 1)
# Format: biochemical
# Set-up: detecting cortisol generated from cortisterone by human liver microsomes; from tissue; host or cells: human liver microsomes
# Run Parameters: 1 hour at 37° C., cortisone 80 nM, NADPH 200 μM, read-out: IC50, inhibitory activity on 11β-HSD 1
Property Measured: pIC50
// pIC50: -log10(molar conc.)

[ask] Endpoint output: pIC50 of C[C@@H](c1ccc(-c2cccc(C3(S(C)(=O)=O)CC3)n2)cc1)N1CC[C@](CC(C)(C)O)(c2ccccc2)OC1=O . Value?
[reply] 7.14

[ask] Endpoint output: pIC50 of CNC(=O)C1(c2ccc(-c3ccc([C@H](C)N4CC[C@](CC(C)(C)O)(c5ccccc5)OC4=O)cc3)cn2)CC1 . Value?
[reply] 7.51

Continuing:
[ask] Endpoint output: pIC50 of C[C@@H](c1ccc(-c2ccnc(C3(C(=O)O)CC3)c2)cc1)N1CC[C@](CC(C)(C)O)(c2ccccc2)OC1=O . Value?
[reply] 6.73

[ask] Endpoint output: pIC50 of C[C@@H](c1ccc(-c2ccc(C3(C(N)=O)CC3)nn2)cc1)N1CC[C@](CC(C)(C)O)(c2ccccc2)OC1=O . Value?
[reply] 7.17

[ask] Endpoint output: pIC50 of C[C@@H](c1ccc(-c2cccc(C3(C(N)=O)CC3)n2)cc1)N1CC[C@](CC(C)(C)O)(c2ccccc2)OC1=O . Value?
[reply] 7.07

---

# Study System: 11β-HSD1 (Homo sapiens)
# Test Details: Inhibition of a microsomal preparation of 11β-HSD1, scintillation proximity assay, microsomes from CHO cells overexpressing human 11β-HSD1 (biological test example 2)
# Format: biochemical
# Design: expressed in transfected cells; host or cells: CHO cells (microsomes isolated from them)
# Run Parameters: microsomes from CHO cells overexpressing human 11β-HSD1, SPA, [3H]cortisone, 90 minutes at room temperature; read-out: IC50, inhibitory activity on 11β-HSD 1
Labelling field: enter t if recorded IC50 is less than 2 nM. Enter f if it equals or exceeds that cut-off.

As a guide, the following entries are already answered.
[ask] Could you please tell me whether IC50 recorded for C[C@@H](c1ccc(-c2cnc(N3CC(F)C3)nc2)cc1)N1CC[C@](CC(C)(C)O)(c2ccccc2)OC1=O [Example 32] is less than 2 nM?
[reply] t

[ask] Could you please tell me whether IC50 recorded for C[C@@H](c1ccc(-c2ccc(=O)n(C3COC3)c2)cc1)N1CC[C@](CC(C)(C)O)(c2ccccc2)OC1=O [Example 58] is less than 2 nM?
[reply] f

[ask] Could you please tell me whether IC50 recorded for C[C@@H](c1ccc(-c2cccc(N3CCOCC3)n2)cc1)N1CC[C@](CC(C)(C)O)(c2ccccc2)OC1=O [Example 40] is less than 2 nM?
[reply] t

[ask] Could you please tell me whether IC50 recorded for C[C@@H](c1ccc(-c2cccc(N3CCCCC3=O)n2)cc1)N1CC[C@](CC(C)(C)O)(c2ccccc2)OC1=O [Example 39] is less than 2 nM?
[reply] f

[ask] Could you please tell me whether IC50 recorded for C[C@@H](c1ccc(-c2cnc(N3CCNC3=O)nc2)cc1)N1CC[C@](CC(C)(C)O)(c2ccccc2)OC1=O [Example 28] is less than 2 nM?
[reply] f

Continuing:
[ask] Could you please tell me whether IC50 recorded for C[C@@H](c1ccc(-c2cccc(-n3ccccc3=O)n2)cc1)N1CC[C@](CC(C)(C)O)(c2ccccc2)OC1=O [Example 41] is less than 2 nM?
[reply] f

[ask] Could you please tell me whether IC50 recorded for C[C@@H](c1ccc(-c2ccc(C3(C(N)=O)CC3)nc2)cc1)N1CC[C@@](CC2CC2)(CC(C)(C)O)OC1=O [Example 59] is less than 2 nM?
[reply] f

[ask] Could you please tell me whether IC50 recorded for C[C@@H](c1ccc(-c2cnc(N3CCN(C)C3=O)nc2)cc1)N1CC[C@](CC(C)(C)O)(c2ccccc2)OC1=O [Example 29] is less than 2 nM?
[reply] f

[ask] Could you please tell me whether IC50 recorded for C[C@@H](c1ccc(-c2ccc(N3CCC3)nn2)cc1)N1CC[C@](CC(C)(C)O)(c2ccccc2)OC1=O [Example 31] is less than 2 nM?
[reply] t

[ask] Could you please tell me whether IC50 recorded for C[C@@H](c1ccc(-c2csc(-n3ccccc3=O)n2)cc1)N1CC[C@](CC(C)(C)O)(c2ccccc2)OC1=O [Example 37] is less than 2 nM?
[reply] t

[ask] Could you please tell me whether IC50 recorded for C[C@@H](c1ccc(-c2ccc(C3(C(N)=O)CC3)nc2)cc1)N1CC[C@](CC(C)(C)O)(c2ccccc2)NC1=O [Example 49] is less than 2 nM?
[reply] t

[ask] Could you please tell me whether IC50 recorded for C[C@@H](c1ccc(-c2cnc(N3CC(O)C3)nc2)cc1)N1CC[C@](CC(C)(C)O)(c2ccccc2)OC1=O [Example 35] is less than 2 nM?
[reply] f

[ask] Could you please tell me whether IC50 recorded for C[C@@H](c1ccc(-c2cnc(N3CCC3)nc2)cc1)N1CC[C@](CC(C)(C)O)(c2ccccc2)OC1=O [Example 34] is less than 2 nM?
[reply] t

[ask] Could you please tell me whether IC50 recorded for C[C@@H](c1ccc(-c2ccn(C3COC3)c(=O)c2)cc1)N1CC[C@](CC(C)(C)O)(c2ccccc2)OC1=O [Example 26] is less than 2 nM?
[reply] f

[ask] Could you please tell me whether IC50 recorded for C[C@@H](c1ccc(-c2cnc(-n3ccccc3=O)s2)cc1)N1CC[C@](CC(C)(C)O)(c2ccccc2)OC1=O [Example 36] is less than 2 nM?
[reply] t

[ask] Could you please tell me whether IC50 recorded for C[C@@H](c1ccc(-c2ccn(C3CNC3)c(=O)c2)cc1)N1CC[C@](CC(C)(C)O)(c2ccccc2)OC1=O [Example 27] is less than 2 nM?
[reply] f

[ask] Could you please tell me whether IC50 recorded for C[C@@H](c1ccc(-c2cnc(N3CCCC3=O)nc2)cc1)N1CC[C@](CC(C)(C)O)(c2ccccc2)OC1=O [Example 30] is less than 2 nM?
[reply] f

[ask] Could you please tell me whether IC50 recorded for C[C@@H](c1ccc(-c2ccnc(N3CCOCC3)n2)cc1)N1CC[C@](CC(C)(C)O)(c2ccccc2)OC1=O [Example 38] is less than 2 nM?
[reply] f

---

# Study System: 11β-HSD1 (Homo sapiens)
# Test Details: In vitro inhibition of 11β-HSD1, HTRF detection of cortisol generated by human liver microsomes (biological test example 1)
# Format: biochemical
# Set-up: detecting cortisol generated from cortisterone by human liver microsomes; from tissue; host or cells: human liver microsomes
# Run Parameters: 1 hour at 37° C., cortisone 80 nM, NADPH 200 μM, read-out: IC50, inhibitory activity on 11β-HSD 1
Property Measured: IC50 (µM)
Hi! Could you send only the number? It should be in µM, unit omitted.

[ask] Endpoint output: IC50 of C[C@@H](c1ccc(-c2ccc(C3(C(N)=O)CC3)cn2)cc1)N1CC[C@](CC(C)(C)O)(c2ccccc2)OC1=O [Example 19] . Value?
[reply] 0.035

[ask] Endpoint output: IC50 of CCOC(=O)C1(c2ccc(-c3ccc([C@H](C)N4CC[C@](CC(C)(C)O)(c5ccccc5)OC4=O)cc3)nn2)CC1 [Example 7] . Value?
[reply] 0.041

[ask] Endpoint output: IC50 of C[C@@H](c1ccc(-c2ccn([C@H]3CCOC3)c(=O)c2)cc1)N1CC[C@](CC(C)(C)O)(c2ccccc2)OC1=O [Example 13] . Value?
[reply] 0.046

Kindly review the next compound as well.
[ask] Endpoint output: IC50 of C[C@@H](c1ccc(-c2ccc(C3(C(=O)N(C)C)CC3)nn2)cc1)N1CC[C@](CC(C)(C)O)(c2ccccc2)OC1=O [Example 11] . Value?
[reply] 0.094
